Value source: PubChem BioAssay AID1159580

Assay: chemical genetic growth profiling, strain panel (AID 1159580);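 note: tested at 20 µM; growth read once vehicle control cultures reached saturation at 30 °C; 1 = growth at the plate median or of vehicle wells; lower values mean less growth of the strain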
Settings: S. cerevisiae deletion strains, growth OD, locus YER016W, strain bim1, active compounds read low
The campaign covered roughly 5,500 compounds. About 2,000 (36%) were called active. Not shown: some 18% with an inconclusive outcome. This is one part of the list.
Lab note: anything with normalized growth below 1 is marked y; values at 1 or higher are marked n.

Here's an entry: Nc1ccc(S(=O)(=O)Nc2cnc3ccccc3n2)cc1 . Is its normalized growth below 1?
y

Here's an entry: OC(CCN1CCCCC1)(c1ccccc1)C1CC2C=CC1C2 (configuration not stated) . Is its normalized growth below 1?
n

###

Experiment: chemical genetic growth profiling, strain panel (AID 1159580);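 note: tested at 20 µM; growth read once vehicle control cultures reached saturation at 30 °C; 1 = growth at the plate median or of vehicle wells; lower values mean less growth of the strain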
Details: S. cerevisiae deletion strains, growth OD, locus YNL298W, strain CLA4
Out of some 5,500 compounds screened, about 2,000 (36%) were called active. Not shown: some 18% with an inconclusive outcome. Rule as the data show it: active = normalized growth mostly below about 0.91 (no sharp cut-off); inconclusive = no clear call, values can overlap the other calls; inactive = mostly above about 0.92. The list shows a part of the results.
Pick one and only one: 1 (active), -1 (inactive)

Hello, I am checking results. What call was entered for CC1C(=O)OC2C1CCC1(C)C=CC(=O)C3(C)OC213 (configuration not stated) ?
-1

Hello, I am checking results. What call was entered for Fc1ccc(C(c2ccccc2)(c2ccccc2F)n2ccnc2)cc1 (configuration not stated) ?
1

Hello, I am checking results. What call was entered for CC(=O)NC(C(=O)O)C(C)(C)SN=O (configuration not stated) ?
-1

Hello, I am checking results. What call was entered for O=C(O)/C=C1\CCCc2ccccc2C1O (configuration not stated) ?
-1

Hello, I am checking results. What call was entered for NCCC(=O)N[C@@H](Cc1cnc[nH]1)C(=O)O ?
-1

Hello, I am checking results. What call was entered for Cc1cc(O)cc(=O)o1 ?
-1

Hello, I am checking results. What call was entered for C[C@@H]1C(=O)O[C@H]2[C@H]1CC[C@@]1(C)C=CC(=O)[C@@]3(C)O[C@@]213 ?
-1

Hello, I am checking results. What call was entered for C[C@@H]1CC[C@H]2[C@@H](C)C(=O)O[C@@H]3O[C@@]4(C)CC[C@@H]1[C@]32OO4 ?
1

Hello, I am checking results. What call was entered for OC(CCN1CCCCC1)(c1ccccc1)C1CCCCC1 (configuration not stated) ?
-1

Hello, I am checking results. What call was entered for O=c1[nH]cc(F)c(=O)[nH]1 ?
1

Hello, I am checking results. What call was entered for CC(C)CC(N(C)C)C1(c2ccc(Cl)cc2)CCC1 (configuration not stated) ?
-1

Hello, I am checking results. What call was entered for Clc1ccccc1C(c1ccccc1)(c1ccccc1)n1ccnc1 ?
1
